runDescription: Rat oral single-dose pharmacokinetic study
Assay type: in vivo
runConditions: male, Sprague-Dawley, rat, plasma; 100 mg/kg single oral gavage; time 0.5 HR; read-out: Compound EH concentration in rat plasma
measurementLabel: concentration at 0.5 h (µM)
Quick reminder: number only, in µM, skip the unit.

concentration at 0.5 h lookup needed for Cc1ccc(CC(=O)O)cc1OCc1c(C)cccc1C , thanks.
723

---

runDescription: Rat oral single-dose pharmacokinetic study
Format: in vivo
runConditions: male, Sprague-Dawley, rat, plasma; 100 mg/kg single oral gavage; time 8 HR; read-out: Compound EH concentration in rat plasma
measurementLabel: concentration at 8 h (µM)
Numeric answer only, unit µM assumed.

Fill in: concentration at 8 h of Cc1ccc(CC(=O)O)cc1OCc1c(C)cccc1C is ___
48
